Numbers sourced from patent US9212132B2.

- Test method notes: Evaluation of photocuring ability (photorheometer)
- Assay type: physicochemical
- Recorded conditions: light energy applied until elastic modulus saturated; 365 nm, 50 mW/cm^2
- Procedure: An evaluation for curing ability from photopolymerization was performed on each ink using a measuring device combining a rheometer VAR200AD, manufactured by REOLOGICA Instruments AB, with an LED light source (LIGHTNINGCURE LC-L1) manufactured by Hamamatsu Photonics K.K. (referred to as Photorheometer, hereinafter). A measurement was performed in the following manner. […]
Quantity name: Photocuring (photorheometer) Curing energy (mJ/cm^2)
Lab book: enter the figure in mJ/cm^2, no units written.

Here are 2 compounds together with their reported answers.
C=CC(=O)OCCOC(=O)N1CCOCC1 [D-1] ... 175
C=C(C)C(=O)OC1CCN(C(=O)OCC)CC1 [F-2] ... 430

I am curious: what Photocuring (photorheometer) Curing energy value has been reported for C=C(C)C(=O)OCCOC(=O)N1CCCCC1 [E-2] ? 840

Again, but for C=C(C)C(=O)OCCOC(=O)N1CCOCC1 [D-2] 380

Again, but for C=C(C)C(=O)OCC(COC(=O)N(CC)CC)OC(=O)C(=C)C (centres unmarked) [G-4] 210

Again, but for C=C(C)C(=O)OCC(CC)(COC(=O)C(=C)C)COC(=O)N(CC)CC [J-4] 110

Again, but for C=CC(=O)OCCOc1ccccc1 [Commercial product (a), reference compound] 200

Again, but for C=CC(=O)OCCOC(=O)NCCCC [Commercial product (c), reference compound] 210

* * *

- Test method notes: Evaluation of photocuring ability (photorheometer)
- Format: physicochemical
- Recorded conditions: light energy applied until elastic modulus saturated; 365 nm, 50 mW/cm^2
In this section, each of the compounds is paired with its reported Photocuring (photorheometer) Curing energy.
Lab book: enter the figure in mJ/cm^2, no units written.

Here are 5 compounds together with their reported answers.
C=CC(=O)OCCOC(=O)N(CC)CC ... 520
C=CC(=O)OCC(COC(=O)N(CC)CC)OC(=O)C=C (stereo not drawn) ... 140
C=CC(=O)OCCN1CCOCC1 [Commercial product (d), reference compound] ... 365
C=CC(=O)OCC(CC)(COC(=O)C=C)COC(=O)N(CC)CC ... 100
C=CC(=O)OCCOC(=O)N1CCCCC1 ... 380

Please look at the following compound next.
I am curious: what Photocuring (photorheometer) Curing energy value has been reported for C=CC(=O)OC1CCN(C(=O)OCC)CC1 ? 150

* * *

In this section, each of the compounds is paired with its reported Photocuring (photorheometer) Curing energy.
- Test method notes: Evaluation of photocuring ability (photorheometer)
- Type: physicochemical
- Recorded conditions: light energy applied until elastic modulus saturated; 365 nm, 50 mW/cm^2
- Description: An evaluation for curing ability from photopolymerization was performed on each ink using a measuring device combining a rheometer VAR200AD, manufactured by REOLOGICA Instruments AB, with an LED light source (LIGHTNINGCURE LC-L1) manufactured by Hamamatsu Photonics K.K. (referred to as Photorheometer, hereinafter). A measurement was performed in the following manner. […]

Here are 2 compounds together with their reported answers.
C=C(C)C(=O)OCCOC(=O)N(CC)CC ... 1,950 mJ/cm^2
C=C(C)C(=O)OCCN1CCOCC1 [Commercial product (e), reference compound] ... 2,050 mJ/cm^2

I am curious: what Photocuring (photorheometer) Curing energy value has been reported for C=C(C)C(=O)OCCOc1ccccc1 [Commercial product (b), reference compound] ? 2,020 mJ/cm^2
